- Tested on: HS 578T breast
- PROTOCOL DETAILS: NCI-60 one-dose screen, 48 h
- COND: 10 µM unless noted
The panel holds about 83,000 compounds, 20% with a hit somewhere; the sample as a whole holds those more often. Active and inactive are the calls of the source. Rule for the calls: active = growth percent below 10; inactive = the rest.
// one of active, inactive, no free text

Check out these entries, answers already filled in.
CC(C)(C)n1cc(-c2ccnc(NCCNS(=O)(=O)c3ccc(C(F)(F)F)cc3)c2)c(-c2cccc(O)c2)n1: inactive
C=C1C(=O)O[C@H]2[C@H]1CC/C(Cn1cc(-c3cccc(Cl)c3)nn1)=C\CC[C@@]1(C)O[C@@H]21: active
Cc1ccc(Nc2nnc(-c3ccc(Cl)cc3)o2)c(C)c1: inactive

Please state the recorded outcome for this compound: Cc1ccc(N2CCN(C(C)C(N)=O)CC2)cc1 (centres undefined)
inactive

Please state the recorded outcome for this compound: NC(=S)N/N=C(/CCN1CCCC1)CC(C1=C(O)C2=CCCCC2OC1=O)c1ccccc1 (centres undefined)
inactive

Please state the recorded outcome for this compound: COc1ccc(-c2nc(SCCC(C)C)nc(Nc3ccc(F)c(Cl)c3)c2C#N)cc1
inactive

Please state the recorded outcome for this compound: COc1cc(/C=N\NC(=O)CN2CCN(c3cc4c(cc3F)c(=O)c(C(=O)N/N=C/c3cc(OC)c(OC)c(OC)c3)cn4C3CC3)CC2)cc(OC)c1OC
active

Please state the recorded outcome for this compound: Cc1cc(C2(c3cc(C)c(O)cc3C)OS(=O)(=O)c3ccccc32)c(C)cc1O
inactive

Please state the recorded outcome for this compound: O=C(NS(=O)(=O)c1ccc2ccccc2c1)n1cc(-c2ccncc2)c(-c2ccc(Cl)c(O)c2)n1
inactive

----------
- Test system: NCI-H226 lung
- PROTOCOL DETAILS: NCI-60 one-dose screen, 48 h
- COND: 10 µM unless noted
The panel holds about 83,000 compounds, 20% with a hit somewhere; the sample as a whole holds those more often. Calls of active or inactive are those of the source. Rule for the calls: active = growth percent below 10; inactive = the rest.
// one of active, inactive, no free text

O=C(CN1CCN(c2cc3c(cc2F)c(=O)c(C(=O)N/N=C/c2ccccc2O)cn3C2CC2)CC1)N/N=C\c1ccccc1O: inactive
Cc1cc(N)n(S(=O)(=O)c2oc(-c3ccccc3)nc2C#N)n1: inactive
CCOC(=O)c1c(NS(=O)(=O)c2ccc(C)cc2)sc2c1CCC1(C2)OCCO1: inactive
CCOC(=O)c1c(/N=C2\SC(=O)/C(=C\C(=O)OC)N2NC)sc2c1CCN(C(=O)OCC)C2: inactive

Switching to the query record.
Please state the recorded outcome for this molecule: CCCCCCCCCCCCNC(=O)[C@H]1CSC(c2ccsc2)N1 (stereo not given in full)
active

----------
- Tested on: HCC-2998 colon
- PROTOCOL DETAILS: NCI-60 one-dose screen, 48 h (100 = growth as untreated, 0 = no growth, -100 = all killed)
- COND: 10 µM unless noted
About 83,000 compounds went through this panel and 20% of them were active in at least one assay; those are over-represented in the sample as a whole.
PARAMETER: growth (%)
Give a bare numeral; the unit % is implied.

Sample answers from the record:
CCN(CC)CCOc1ccc(/C(=C(/C)c2ccccc2)c2ccc(OC(C)=O)cc2)cc1: 103
CCN(CC)c1ccc(CNc2ccnc3ccccc23)cc1: 36.9
COc1cc(Nc2ncccc2C(=O)NCc2cn(Cc3cccc(Oc4ccccc4)c3)nn2)cc(OC)c1: 55

Fill in the blank: the reported growth of COc1cc([N+](=O)[O-])c2ncccc2c1O is ____.
26.2

Fill in the blank: the reported growth of C1=Cc2ccccc2N(c2nnc(-c3ccccc3)o2)c2ccccc21 is ____.
121

Fill in the blank: the reported growth of O=S(=O)(c1ccc(OCCO)cc1)c1ccc(OCCO)cc1 is ____.
104

Fill in the blank: the reported growth of COc1cc(NC(N)=NCCC(C)(C)Oc2ccc(C(F)(F)F)cc2)ncc1C#N is ____.
-86.6
